# ASSAYED_TARGET: C-terminal GST-tagged, recombinant, human IGF-1R, amino acids 954-1367 (Homo sapiens, UniProt P08069)
# Construct: human IGF-1R, amino acids 954-1367 expressed by baculovirus in Sf21 cells; GST (C)
# Sequence (P08069 954-1367): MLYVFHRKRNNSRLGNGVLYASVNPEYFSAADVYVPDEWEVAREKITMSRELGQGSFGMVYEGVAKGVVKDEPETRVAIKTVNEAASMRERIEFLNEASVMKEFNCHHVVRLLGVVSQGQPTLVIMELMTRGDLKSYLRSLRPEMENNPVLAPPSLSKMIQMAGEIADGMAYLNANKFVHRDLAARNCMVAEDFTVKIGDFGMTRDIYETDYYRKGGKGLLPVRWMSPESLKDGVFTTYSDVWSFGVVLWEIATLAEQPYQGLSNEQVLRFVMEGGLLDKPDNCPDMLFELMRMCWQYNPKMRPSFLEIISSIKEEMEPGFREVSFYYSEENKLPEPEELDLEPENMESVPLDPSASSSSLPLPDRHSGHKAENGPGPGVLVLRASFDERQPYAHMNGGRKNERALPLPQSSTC
# RUN_DESCRIPTION: IGF-1R kinase activity, homogenous time-resolved fluorescence (HTRF) in vitro kinase assay
# CONDITION_CONTEXT: IGF-1R kinase HTRF assay, ATP 50 μM, biotinylated peptide substrate 0.5 μM, 60 minutes at room temperature
pIC50: −log10 of the molar value.
Item-by-item account of pIC50

Worked cases, pIC50 given:
COc1cc(NCC(C)(C)O)ccc1Nc1nccc(-c2c(-c3ccc(OCc4ccccc4)c(OC)c3)nc3ccccn23)n1 [Example 45] :: 6.30 to 7.00
c1ccc(COc2ccc(-c3nc4ccccn4c3-c3ccnc(Nc4ccccc4)n3)cc2)cc1 [Example 7] :: < 6.00
COc1cc(-c2nc3ccccn3c2-c2ccnc(Nc3cccc(CCN(C)C)c3)n2)ccc1OCc1ccccc1 [Example 12] :: 6.30 to 7.00

Field: next molecule
For COc1cc(-c2nc3ccccn3c2-c2ccnc(Nc3cccc(CN4CCC(O)C4)c3)n2)ccc1OCc1ccccc1 (stereo not shown) [Example 70] , what is its reported pIC50?
7.00 to 7.60
